Target: T1, recombinant human A33 antigen (human, UniProt Q99795 22-233, limits assumed)
T1 construct: also called human antigen A33; immobilized recombinant human A33
T1 sequence (looked up): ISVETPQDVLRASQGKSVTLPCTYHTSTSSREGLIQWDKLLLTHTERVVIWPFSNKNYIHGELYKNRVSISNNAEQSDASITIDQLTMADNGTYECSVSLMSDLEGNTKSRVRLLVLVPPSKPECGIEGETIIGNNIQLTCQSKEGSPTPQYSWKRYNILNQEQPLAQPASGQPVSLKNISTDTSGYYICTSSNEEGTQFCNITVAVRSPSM
Test: SPR (Biacore), recombinant human A33 immobilized on CM5 chip, Fab injected at 75-200 nM
Protocol: The binding strength was determined by surface plasmon resonance in accordance with Rader, et al., Proc. Natl. Acad. Sci USA 95(15): 8910–8915 (1998), incorporated by reference. […] The $kon$ and $koff$ values were calculated using Biacore AB evaluation software. The equilibrium dissociation constant K_d was calculated from $koff/kon$. […]
Each entry below lists one item and its recorded kon value.
The response must be a number in M⁻¹ s⁻¹ with no trailing unit.

A selection of reference data follows.
humanized Fab D (human VLD and human VHD) (Fab, V domains shown) VH: EVQVMESGGGLVKPGGSLRLSCAASGIDFSHYGISWVRQAPGKGLEWVSYIYPNYGSVDYASSVNGRFTISLDNAQNSLYLQMNSLRAEDTAVYFCARDRGYYSGSRGTRLDLWGQGTLVTVSS VL: ELQMTQSPSSLSASVGDRVTITCLASEFLFNGVSWYQQKPGKVPKFLIYGASNLESGVPSRFSGSGSGTDYTLTISSLQPEDVATYYCLGGYSGSSGLTFGGGTKVEIK = 65000
humanized Fab E (human VLE and human VHE) (Fab, V domains shown) VH: EVQVMESGGGLVKPGGSLRLSCAASGFTFSHYGISWVRQAPGKGLEWVSYIYPNYGSVDYASSVNGRFTISFDNAQNSVYLQMNSLRAEDTAVYYCARDRGYYSGSRGTRLDLWGQGTLVTVSS VL: ELQMTQSPSSLSASVGDRVTITCLASEFLFNGVSWYQQKPGKAPKLLIYGASNLESGVPSRFSGSGSGTDYTLTISSLQPEDVATYYCLGGYSGSSGLTFGGGTKVEIK = 65000
humanized Fab C (human VLC and human VHC) (Fab, V domains shown) VH: EVQVMESGGGLVKPGGSLRLSCAASGIDFSHYGISWVRQAPGKGLEWVSYIYPNYGSVDYASSVNGRFTISLDNAQNSLYLQMNSLRAEDTAVYYCARDRGYYSGSRGTRLDLWGQGTLVTVSS VL: ELQMTQSPSSLSASVGDRVTITCLASEFLFNGVSWYQQKPGKAPKFLIYGASNLESGVPSRFSGSGSGTDFTLTISSLQPEDVATYYCLGGYSGSSGLTFGGGTKVEIK = 109000

Then this binder:
What value of kon has been reported for the following binder? humanized Fab A (human VLA and human VHA) (Fab, V domains shown) VH: EVQVMESGGGLVKPGGSLRLSCAASGIDFSHYGISWVRQAPGKGLEWVSYIYPNYGSVDYASSVNGRFTISFDNAQNSLYLQMNSLRAEDTAVYYCARDRGYYSGSRGTRLDLWGQGTLVTVSS VL: ELQMTQSPSSLSASVGDRVTITCLASEFLFNGVSWYQQKPGKVPKFLIYGASNLESGVPSRFSGSGSGTDYTLTISSLQPEDVATYYCLGGYSGSSGLTFGGGTKVEIK 105000

Attribution: patent US6346249
